tested on: HIV-1IIIB strain; assay: HIV-1 cytoprotection assay (CEM-SS cells, MTS dye reduction); format: cell-based; conditions: CEM-SS cells, HIV-1 IIIB strain, 6 days, MTS
recorded_endpoint: IC50 HIV-1IIIB strain (nM)

// field: IC50 HIV-1IIIB strain (nM); key: CC/C=C\C/C=C\C/C=C\C/C=C\C/C=C\CCCC(=O)Nc1ccc(S(=O)(=O)N(CC(C)C)C[C@@H](O)[C@H](Cc2ccccc2)NC(=O)O[C@H]2CO[C@H]3OCC[C@H]32)cc1 ; value = + ++

// field: IC50 HIV-1IIIB strain (nM); key: CC/C=C\C/C=C\C/C=C\C/C=C\C/C=C\C/C=C\CCC(=O)NCCNC(=O)OC[C@@H]1O[C@H](n2ccc(N)nc2=O)CS1 ; value = + ++

// field: IC50 HIV-1IIIB strain (nM); key: CC/C=C\C/C=C\C/C=C\C/C=C\C/C=C\C/C=C\CCC(=O)Nc1ccc(S(=O)(=O)N(CC(C)C)C[C@@H](O)[C@H](Cc2ccccc2)NC(=O)O[C@H]2CO[C@H]3OCC[C@H]32)cc1 ; value = + ++

// field: IC50 HIV-1IIIB strain (nM); key: CC/C=C\C/C=C\C/C=C\C/C=C\C/C=C\C/C=C\CCC(=O)Nc1ccn([C@@H]2CS[C@H](CO)O2)c(=O)n1 ; value = + ++

Source listed as patent US20140288025A1.
